Data credit: PubChem BioAssay

Exercise: state measured inhibition for each of the compounds provided.
# ASSAY_PROCEDURE: inhibitors of TNFa-induced NFkB p65 translocation, primary screen, imaging, HUVEC, MLSMR starter and 10KST1 sets (AID 438);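 further: compound added about 3h40 before a 20 min TNFalpha stimulation; signal is the nuclear over cytoplasmic p65 intensity ratio per well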
# DETAILS: HUVEC TNFa-induced p65 nuclear translocation; at 2 µM, hits give high values, 0% TNFa-plus-vehicle, 100% no-TNFa wells
Expressed in %, but write only the number.

Please fill in: inhibition reported for CCS(=O)(=O)N1CCCC(C(=O)NCCc2ccc(OC)c(OC)c2)C1 (stereo unspecified) = -12.8

Please fill in: inhibition reported for COc1ccc(-c2cc(C(F)(F)F)n3ncc(C(=O)NCC4CCCO4)c3n2)cc1 (stereo unspecified) = 6.7

Please fill in: inhibition reported for "CN(C(=O)c1ccco1)c1nnc(C23CC4CC(CC(C4)C2)C3)s1" = -10

Please fill in: inhibition reported for "Nc1ncnc(Nc2ccccc2C(F)(F)F)n1" = -3.3

Please fill in: inhibition reported for "O=C(Cc1cccs1)Nc1nnc(CCc2ccccc2)s1" = 1.5

Please fill in: inhibition reported for "COc1ccccc1NC(=O)NCCCN1CCN(c2cccc(Cl)c2)CC1" = -11.6

Please fill in: inhibition reported for "COC(=O)CNc1nc(C2CC2)nc2c1nnn2Cc1ccccc1Cl" = 8.3

Please fill in: inhibition reported for "CCCN(Cc1cc2ccc(C)cc2[nH]c1=O)C(=O)c1cccnc1" = 2.6

Please fill in: inhibition reported for CN(C1CCS(=O)(=O)C1)S(=O)C12CC3CC(CC(C3)C1)C2 (stereo unspecified) = 23.1

Please fill in: inhibition reported for "Cc1ccc(N=Cc2ccc[nH]2)c(O)c1" = 4.9

Please fill in: inhibition reported for "CCOc1ccc(N(CC(=O)OC)S(=O)(=O)c2ccc(OC)c(OC)c2)cc1" = 6.3

* * *

# ASSAY_PROCEDURE: endothelial E-selectin expression blockers – imaging, HUVEC, immunofluorescence, MLSMR starter and 10KST1 sets, primary screen (AID 487);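 further: signal is fraction of cell area covered by stained E-selectin grains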
# DETAILS: HUVEC TNFalpha-induced E-selectin immunofluorescence imaging, at 2 µM; hits give high values
Just so you know, the groups by inhibition go like this: LOW = under -30%, MID = from -30% up to -10%, HIGH = -10% and over

Q: Tag the class for CC(=O)OC1c2ccccc2C(=O)N1Cc1ccccc1Cl (configuration not stated)
Ans: MID

Q: Tag the class for "Cc1cc(NC(=O)c2cnn3c(C(F)F)cc(C4CC4)nc23)no1"
Ans: HIGH

Q: Tag the class for "COc1ccccc1CNC(=O)CCNC(=O)Cn1ccc2ccccc2c1=O"
Ans: MID

Q: Tag the class for CC1=CC2=C(OC1N(C)C)c1cccc3cccc(c13)C2=O (configuration not stated)
Ans: HIGH

Q: Tag the class for "N#CCCCCn1c(-c2cncs2)nc2ccccc21"
Ans: HIGH

Q: Tag the class for "COc1cccc(C2=Nn3c(nnc3-c3ccccc3O)SC2)c1"
Ans: HIGH

Q: Tag the class for "CCc1ccc(NC(=O)c2cccnc2)cc1"
Ans: MID

Q: Tag the class for "CC(=O)N(C)C1(c2nnnn2CCOC(=O)Nc2ccc(Cl)cc2)CCCCC1"
Ans: LOW

Q: Tag the class for "Cc1cc(C)nc(NC(=O)c2cnc3sccn3c2=O)n1"
Ans: MID

Q: Tag the class for COc1cccc(C2CC(c3ccc(C)cc3)n3nc(N)nc3N2)c1 (configuration not stated)
Ans: LOW

Q: Tag the class for O=C(Cn1cnc2c(nnn2Cc2ccc(Cl)cc2)c1=O)NCC1CCCO1 (configuration not stated)
Ans: LOW

Q: Tag the class for "C=CCn1c(-c2cccs2)nc2nc3ccccc3nc21"
Ans: LOW

Q: Tag the class for "O=C(c1cc(S(=O)(=O)N2CCOCC2)ccc1F)N1CCCc2ccccc21"
Ans: LOW

Q: Tag the class for "CC(=O)N1CCN(Cc2ccc(Br)s2)CC1"
Ans: MID

Q: Tag the class for CC1CC(C)CN(CCCNC(=O)c2ccc3c(c2)NC(=O)C(N2CCCCC2)S3)C1 (configuration not stated)
Ans: MID

Q: Tag the class for COc1ccccc1NC(=O)C1=C(C)Nc2nnnn2C1c1ccccc1OC (configuration not stated)
Ans: HIGH

Q: Tag the class for CC(OC(=O)C1CC=CCC1C(N)=O)C(Cl)=C(Cl)Cl (configuration not stated)
Ans: LOW

Q: Tag the class for COCCn1c(SCC(=O)Nc2ccc3c(c2)OCCO3)nc2c(c1=O)SC(C)C2 (configuration not stated)
Ans: LOW

Q: Tag the class for CC(CN1CCCCC1)OC(=O)c1ccc(Cl)cc1Cl (configuration not stated)
Ans: HIGH

Q: Tag the class for O=C(Nc1ccncc1)C1CCCN(S(=O)(=O)c2cccc3cccnc23)C1 (configuration not stated)
Ans: LOW

Q: Tag the class for "CCOC(=O)c1cccc(NC(=O)c2ccco2)c1"
Ans: HIGH

Q: Tag the class for "COc1cc(C(=O)Nc2nc(-c3cccs3)cs2)cc(OC)c1OC"
Ans: MID

Q: Tag the class for O=C(NC1CCCC1)C(c1cccs1)N(Cc1ccco1)C(=O)Cn1nnc(-c2cccs2)n1 (configuration not stated)
Ans: HIGH

Q: Tag the class for "O=C(Nc1ccc(Br)cc1F)c1sccc1-n1cccc1"
Ans: MID

Q: Tag the class for CC(C)COc1ccc(C2NC(=O)NC2=O)cc1 (configuration not stated)
Ans: HIGH

Q: Tag the class for "COC(=O)[C@H](C)NC(=O)Nc1cc(OC)ccc1OC"
Ans: MID

Q: Tag the class for CC(=O)C(Sc1ncnc2c1nnn2-c1ccc(F)cc1)C(=O)N(C)C (configuration not stated)
Ans: LOW

Q: Tag the class for "CCOC(=O)c1ccc(NS(=O)(=O)c2ccc3c(c2)oc(=O)n3C)cc1"
Ans: HIGH

Q: Tag the class for "CCn1c2ccccc2c2cc(N)ccc21"
Ans: LOW

Q: Tag the class for COc1ccccc1CN1C(=S)SC(C)(C)C1NO (configuration not stated)
Ans: HIGH

Q: Tag the class for S=c1[nH]nc(-c2ccccc2)n1C1C=CCCC1 (configuration not stated)
Ans: LOW

Q: Tag the class for CC1Cc2ccccc2N1S(=O)(=O)c1cccc(C(=O)OCC(=O)NC2CCS(=O)(=O)C2)c1 (configuration not stated)
Ans: LOW

Q: Tag the class for COc1ccc(NC2c3ncccc3C(=O)N2Cc2ccccc2)c(OC)c1 (configuration not stated)
Ans: LOW

Q: Tag the class for "Cc1ccc2[nH]c(=O)c(CN(Cc3ccc4c(c3)OCO4)Cc3nnnn3Cc3ccco3)cc2c1"
Ans: LOW

Q: Tag the class for "C/C=C/CSc1nc2c(c(=O)[nH]c(=O)n2C)n1Cc1ccc(C)cc1"
Ans: LOW

Q: Tag the class for "Cc1ccc(S(=O)(=O)NCCN2CCOCC2)cc1C"
Ans: HIGH

Q: Tag the class for "COC(=O)c1cc2oc(C)cc2n1CC(=O)N(C)c1ccccc1"
Ans: LOW

Q: Tag the class for "CCOC(=O)c1cc2cc(F)ccc2nc1C"
Ans: HIGH

Q: Tag the class for "CCOC(=O)c1sc2nc(SCC(=O)NCc3ccco3)n(Cc3ccccc3)c(=O)c2c1C"
Ans: MID

Q: Tag the class for "O=c1cnnc(NCc2ccccc2)[nH]1"
Ans: LOW

Q: Tag the class for CC(=O)c1ccc(OCC(O)CN2CC(C)OC(C)C2)cc1 (configuration not stated)
Ans: HIGH

Q: Tag the class for "CCN(c1c(C)n(C)n(-c2ccccc2)c1=O)S(C)(=O)=O"
Ans: LOW

Q: Tag the class for Cc1ccc2c(c1)C(O)(CC(=O)c1ccc3c(c1)OCO3)C(=O)N2 (configuration not stated)
Ans: HIGH

Q: Tag the class for Cn1c(C(=O)OCC(=O)NCC2CCCO2)cc2sccc21 (configuration not stated)
Ans: LOW

Q: Tag the class for "O=C(OCC(=O)c1ccc[nH]1)c1ccc(S(=O)(=O)N2CCCCC2)cc1"
Ans: LOW

* * *

# ASSAY_PROCEDURE: blockers of RIG-like receptor reporter activation – cell-based, Sendai virus stimulus, luciferase, 10K MLSCN set, TLR/RLR signaling modifier project, primary screen (AID 602276);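 further: firefly luciferase from ISG56 promoter only with Renilla not read in this screen; 0% = Sendai virus plus DMSO and 100% = medium plus DMSO without virus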
# DETAILS: HEK293 RL24 IRF3 luciferase reporter, at 10 µM, hits give high values
Where a SMILES comes first, the peptide text is derived from it. The star is where a group is joined. Boc = CC(C)(C)OC(=O)*
READOUT_TYPE: inhibition (%)
Expressed in %, but write only the number.

Please fill in: inhibition reported for "Cc1cc(NC(=O)CSc2nc3ccccc3n2CC(=O)N2CCCCC2)no1" = 14.5

Please fill in: inhibition reported for "CCCC1(CCC)NC(=O)NC1=O" = 6.49

Please fill in: inhibition reported for "C=CCn1c(N)c(C(=O)NCCC2=CCCCC2)sc1=S" = 0.338

Please fill in: inhibition reported for CCOC(=O)C1CSC(CC(=O)Nc2ccc(Cl)cc2)C(=O)N1 (centres undefined) = -5.63

Please fill in: inhibition reported for "O=C1CN(c2nc3ccccc3n3cnnc23)CC(=O)N1CCc1ccccc1" = 6.8

Please fill in: inhibition reported for "Cc1ccc(C)c(NC(=O)CSc2nnc(-c3ccccc3)o2)c1" = 10

Please fill in: inhibition reported for CC1CCCN(C(=O)CN2C(=O)c3ccccc3C2=O)C1 (centres undefined) = 14.5

Please fill in: inhibition reported for "O=C(NCN1CCCCC1)c1cccnc1" = 5.02

Please fill in: inhibition reported for "O=C(OCCN1C(=O)c2ccccc2C1=O)c1ccc(S(=O)(=O)N2CCCCCC2)cc1" = 19.6

Please fill in: inhibition reported for "O=C(c1ccccc1Cl)N1CCc2ccccc2C1" = -6.82

Please fill in: inhibition reported for "NCc1cccc(-n2cccn2)c1" = -6.32

Please fill in: inhibition reported for CC(C)CC(NC(=O)OC(C)(C)C)C(=O)NC(C(=O)N1CCCC1C(N)=O)C(C)C (stereo not drawn) (Boc-Leu-Val-Pro-NH2; configuration not given here) = 4.38

Please fill in: inhibition reported for CC(NC(=O)c1cn(C)c2ccc(S(=O)(=O)N3CCCC3)cc2c1=O)c1ccc2c(c1)OCCO2 (centres undefined) = -4.57

Please fill in: inhibition reported for "COC(=O)c1cc(OC)c(OCc2cc(C(=O)OC)oc2C)c(OC)c1" = 17

Please fill in: inhibition reported for "COc1ccc(-c2noc(COc3ccc(C)c(C)c3)n2)cc1OC" = -1.39

Please fill in: inhibition reported for COc1ccc(N2CCN(C(c3ccccc3)c3sc4nc(C)nn4c3O)CC2)cc1 (centres undefined) = 8.1

Please fill in: inhibition reported for "Clc1cccc(N2CCN(Cc3nc(-c4ccccc4)no3)CC2)c1" = 2.81

Please fill in: inhibition reported for "COc1ccc(NC(=O)COc2ccccc2)c(OC)c1" = -32.8

Please fill in: inhibition reported for "O=C(Nc1ccc(F)cc1)N(CCCN1CCOCC1)Cc1cc2cc3c(cc2[nH]c1=O)OCO3" = 15.6

Please fill in: inhibition reported for "Cc1ccccc1-n1nnnc1SCC(=O)Nc1ccc(S(=O)(=O)N2CCCC2)cc1" = 23.8

Please fill in: inhibition reported for "Cc1[nH]c(C(=O)N2CCCCC2)c(C)c1C(=O)NC1CCCCC1" = 5.02

Please fill in: inhibition reported for O=C(Cn1c(=O)n(CC2CCCO2)c(=O)c2ccccc21)c1ccccc1 (centres undefined) = 10.8

Please fill in: inhibition reported for "CCOC(=O)c1cccc(NC(=O)CSc2nnc(-c3cccnc3)n2C)c1" = 8.88

Please fill in: inhibition reported for "COc1ccc(NC(=O)CCc2ccccc2)cc1NC(=O)c1ccco1" = 16.7

Please fill in: inhibition reported for "c1ccn2c(SCc3ccc4c(c3)OCCO4)nnc2c1" = -29.2

Please fill in: inhibition reported for "Cc1cc(C)n(CCc2nc(-c3cccs3)cs2)n1" = -6.14

Please fill in: inhibition reported for "COc1ccc(NC(=O)CN2CCN(CC(=O)Nc3cc(OC)cc(OC)c3)CC2)cc1" = 13.3

Please fill in: inhibition reported for "CNS(=O)(=O)c1cccc(C(=O)OCC(=O)c2cc(C)n(-c3ccc4c(c3)OCO4)c2C)c1" = -1.89

Please fill in: inhibition reported for "Cc1cc(NC(=O)CCCN2C(=O)c3cccnc3C2=O)no1" = -4.41

Please fill in: inhibition reported for Cc1ccc(-c2nnn(CC(=O)N(Cc3cccs3)C(C(=O)NC(C)(C)C)c3ccc(C)o3)n2)o1 (centres undefined) = 16.3

Please fill in: inhibition reported for "CCc1ccc(C=NC23CN4CN(CN(C4)C2)C3)s1" = -1.05

Please fill in: inhibition reported for "COc1cccc(-c2noc(-c3cccs3)n2)c1" = 6.14

Please fill in: inhibition reported for "Cc1cc2c(cc1C)-c1nnnn1C(C)(C)C2" = -16.2

Please fill in: inhibition reported for "O=C(COC(=O)CCC(=O)c1cccs1)NCc1ccco1" = 18

Please fill in: inhibition reported for "CC(=O)c1cc(-c2ccc(F)cc2)n(CCC(=O)Nc2cc(C)[nH]n2)c1C" = 4.04

Please fill in: inhibition reported for O=C(CN1C(=O)C2C3C=CC(C3)C2C1=O)NCc1ccc2c(c1)OCO2 (centres undefined) = -4.21

Please fill in: inhibition reported for "Fc1cccc(Nc2cc(-n3cccn3)ncn2)c1" = -32.7

Please fill in: inhibition reported for "CC1CCN(CCc2nc3cc(NS(=O)(=O)c4ccc(F)cc4)ccc3n2C)CC1" = 5.27

Please fill in: inhibition reported for "CCN(CC)CCNC(=O)CCn1c(=S)[nH]c2cc3c(cc2c1=O)OCO3" = -5.94

Please fill in: inhibition reported for "Cc1nnc(C)c2c(C)n(Cc3ccc4c(c3)OCO4)c(C)c12" = -9.5

Please fill in: inhibition reported for "Cc1ccccc1NC(=O)CSc1nc(N)c(C#N)c(-c2cccs2)c1C#N" = 11.6

Please fill in: inhibition reported for "Cc1cc(C)c2c(n1)nn1c(N3CCN(c4cccc(Cl)c4)CC3)cc(C)nc21" = 9.81

Please fill in: inhibition reported for "CCOC(=O)N1CCN(C(=O)c2ccc3c(=O)n(Cc4ccc(OC)cc4)c(=S)[nH]c3c2)CC1" = 11.9

Please fill in: inhibition reported for "COCCn1nnnc1CN(Cc1cccnc1)Cc1cc2cc(OC)ccc2[nH]c1=O" = 14.3
